Each record here notes measured 稀释50倍RLU.
Biological target: Scl-70抗原 (人DNA拓扑异构酶I的C末端片段的70kD分子量蛋白) (human) (UniProt P11387)
Assay: chemiluminescence immunoassay on Scl-70-coated magnetic microspheres, ABEI-anti-human IgG; CHO supernatant diluted 50-fold
Give just the number in RLU; leave the unit off.

These solved cases illustrate the format of a correct answer.
Binder	Units label	稀释50倍RLU
抗体1 (实施例11; 2D6抗体) (antibody, human IgG1, kappa, V domains shown) VH: EIQLVQSGSEVVRTGTSVKLSCKASGYRFTSYWMHWVKQRPGQGLEWIGNINPGDGRTNYDENFKNKATLTVDPSSNTAYMQLNSLTSEDSAVYYCTRDGNYGIFDYWGRGTSVTVSS VL: NIVMTQSPSSLVVSAGEKVTLSCKSSQSLLYSSNQKNYLAWFQQKPGQSPKLLIYWASTRESGVPDRFTGSGSRTDFTLTISSVQAEDMAVYYCHQYIYLWSFGGGSKLEIER	RLU	220000
抗体5 (实施例15) (antibody, human IgG1, kappa, V domains shown) VH: EIQLVQSGSEVVRTGTSVKLSCKASGYRFTSYWMHWVKQRPGQGLEWIGNINPGDGRTNYDENFKNKATLTVDPSSNTAYMQLNSLTSEDSAVYYCTRDGNYGIFDYWGRGTSVTVSS VL: DIELTQSPSSLVVSAGEKVTLSCKSSQSLLYSSNQKNYLAWFQQKPGQSPKLLIYWASTRGSGVPDRFTGSGSRTDFTLTISSVQAEDMAVYYCHQYIYLWSFGGGTKLEIKR	RLU	239000
抗体6 (实施例16) (antibody, human IgG1, kappa, V domains shown) VH: EVKLVESGGGLVQPGGSRKLSCAASGFTFSSYWMHWVRQAPEKGLEWVANINPGDGRTNYDENFKNRFTISRDNPENTLFLQMTSLTSEDTAIYYCARRAAYGNYDWYFDVWGAGTTVTVSS VL: NIVMTQSPSSLVVSAGEKVTLSCKSSQSLLYSSNQKNYLAWFQQKPGQSPKLLIYWASTRESGVPDRFTGSGSRTDFTLTISSVQAEDMAVYYCHQYIYLWSFGGGSKLEIER	RLU	177000

// moving on: another record for 稀释50倍RLU
Bench note: what 稀释50倍RLU did 抗体4 (实施例14) (antibody, human IgG1, kappa, V domains shown) VH: EVKLVESGGGLVQPGGSRKLSCAASGFTFSSYWMHWVRQAPEKGLEWVAYISSGGITIYYADTVKGRFTISRDNPENTLFLQMTSLTSEDTAIYYCARRAAYGNYDWYFDVWGAGTTVTVSS VL: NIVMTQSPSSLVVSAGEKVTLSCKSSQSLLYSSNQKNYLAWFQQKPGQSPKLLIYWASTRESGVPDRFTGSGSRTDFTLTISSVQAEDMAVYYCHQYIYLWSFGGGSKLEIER show?
379000

Data origin, for the record: patent CN113461822A
